- Test: antimalarial activity against Dd2 strain (AID 2302);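 also: 0% = DMSO untreated growth and 100% = chloroquine plus artemisinin killed control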
- Condition label: P. falciparum Dd2 in RBCs, LDH growth readout, 72 h; at 2 µM; hits give high values
Lab note: class by growth inhibition, see 0 = under 40%, 1 = from 40% up to 90%, 2 = 90% and over

- Molecule: "CCCCCN1CCCC1CNS(=O)(=O)c1cccc(C(=O)Nc2cccc(C#N)c2)c1 (centres undefined)"
  Cat: 0
- Molecule: "Cc1cc(NC(=O)c2ccco2)ccc1OC1CCN(Cc2ccc(F)cc2)CC1"
  Cat: 2
- Molecule: "COc1ccc2nc(-c3cccc(C)n3)nc(Nc3ccncc3)c2c1"
  Cat: 1
- Molecule: "FC(F)(F)c1ccc(NC(=S)N2CCC(CCN3CCC(c4c[nH]c5ccccc45)CC3)CC2)cc1"
  Cat: 0
- Molecule: "CN(C)C(=NCCCCCCN=C(NC(N)=NCc1ccc(Cl)c(Cl)c1)N(C)C)NC(N)=NCc1ccc(Cl)c(Cl)c1"
  Cat: 2
- Molecule: "C=CCc1cc(OC)ccc1OCCCOc1c(C)nc(N)nc1N"
  Cat: 2
- Molecule: "CN(C)CCOc1ccc2c(=O)cc(CCc3cccc(F)c3F)n(CC(=O)N(C)Cc3ccc(-c4ccc(C(F)(F)F)cc4)cc3)c2c1"
  Cat: 1
- Molecule: "c1ccc(-c2cc(NCCCCCCCCNc3cc(-c4ccccc4)nc4ccccc34)c3ccccc3n2)cc1"
  Cat: 1

====

- Target system: Plasmodium falciparum protein kinase 6 (PK6, PF3D7_1337100)
- Test: PfPK6 kinase inhibitors, biochemical, TCAMS library (AID 1159586)
- Condition label: recombinant PfPK6, Kinase-Glo ATP depletion luminescence
Entries with a potency or affinity are not part of this list. Activity calls are given as the source filed them. How the calls were made is not given here.
Measured property: outcome

- Structure as smiles: "N=C(N)c1cccc(OCCCOc2cccc(NC(=O)Nc3ccc([N+](=O)[O-])cc3)c2)c1"
  Value observed: "inactive"
- Structure as smiles: "O=S(=O)(c1ccc(Cl)cc1Cl)N1CCCCC(c2ccc(C(F)(F)F)cc2)=N1"
  Value observed: "inactive"
- Structure as smiles: "COc1ccccc1CCNc1ncnc2c1[nH]c1ccc(F)cc12"
  Value observed: "inactive"
- Structure as smiles: "CC(C)CNC(=O)c1ccnc(-c2ccc(CNC3Cc4ccccc4C3)cc2)c1"
  Value observed: "inactive"
- Structure as smiles: "COc1ccccc1CCNC(=O)c1cc(Br)cc(N2CCN(c3ccncc3)CC2)c1"
  Value observed: "inactive"
- Structure as smiles: "CCOc1cc(C)ccc1C1CCN(CCN2CCC(CNC(=O)c3ccc(-c4ccc(C(F)(F)F)cc4)cc3)CC2)CC1"
  Value observed: "inactive"
- Structure as smiles: "CN1CCc2ccc(NC(=O)Nc3ccc(Cl)c(Cl)c3)cc2C1"
  Value observed: "inactive"
- Structure as smiles: "COC(=O)c1cccc(CNCc2ccc(-c3ccc(-c4nc5ccc(C(F)(F)F)cc5[nH]4)cc3)cc2)c1"
  Value observed: "inactive"
- Structure as smiles: "Cc1nc(-c2nc(NCCc3ccncc3)ncc2-c2ccsc2)sc1C"
  Value observed: "inactive"
- Structure as smiles: "Cc1cccc2[nH]c(-c3ccc(-c4ccc(CNCCNC(=O)c5ccnn5C)cc4)cc3)nc12"
  Value observed: "inactive"

====

- Test: inhibition of 3D7 malaria parasite growth – strain 3D7 (AID 2306);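 also: 0% = DMSO wells and 100% = chloroquine plus artemisinin control wells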
- Condition label: P. falciparum 3D7 erythrocytic growth, LDH absorbance, 72 h; at 2 µM; hits give high values
Activity calls are given as the source filed them. No rule for the calls is given here.
Each entry below lists one item and its recorded growth inhibition value.
Measured property: growth inhibition

- Compound: "Cc1nc2ccc3ccc(CNc4ccc(C#N)cc4)cc3c2c(=O)[nH]1"
  Measured property: "growth inhibition"
  Value observed: "84% (active)"
- Compound: "CCCCCc1ccc(N2C(N)=NC(N)=NC2(C)C)cc1"
  Measured property: "growth inhibition"
  Value observed: "95% (active)"
- Compound: "COc1ccc(OC)c2c1C[C@@H]1NC[C@H]2c2c(OC)ccc(OC)c21"
  Measured property: "growth inhibition"
  Value observed: "99% (active)"
- Compound: "Cc1cc(C)cc(NC(=S)NCCCCN2CCN(c3cccc(Cl)c3)CC2)c1"
  Measured property: "growth inhibition"
  Value observed: "88% (active)"
- Compound: "COc1ccc(CCNCCCCCCNCCc2cccc([N+](=O)[O-])c2)cc1OC"
  Measured property: "growth inhibition"
  Value observed: "93% (active)"
- Compound: "CC(C)NCc1ccc(-c2cccc(NC(=O)c3ccc(Cl)cc3)c2)cc1"
  Measured property: "growth inhibition"
  Value observed: "100% (active)"
- Compound: "O=C1OC2(CN1CC1CCN(Cc3ccc(-n4ccnc4)cc3)C1)c1ccccc1-c1ccccc12 (stereo not given)"
  Measured property: "growth inhibition"
  Value observed: "96% (active)"
- Compound: "CCCCCN1CCCC1CNS(=O)(=O)c1cccc(C(=O)Nc2cccc(C#N)c2)c1 (stereo not given)"
  Measured property: "growth inhibition"
  Value observed: "90% (active)"
- Compound: "Cc1c(N)ccc2[nH]c(-c3ccc(N)cc3)nc12"
  Measured property: "growth inhibition"
  Value observed: "97% (active)"
- Compound: "Cc1ccc2c(NN=Cc3ccc(N(C)C)cc3)cc(C)nc2c1"
  Measured property: "growth inhibition"
  Value observed: "99% (active)"

====

- Test: inhibition of 3D7 malaria parasite growth – strain 3D7 (AID 2306);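 also: 0% = DMSO wells and 100% = chloroquine plus artemisinin control wells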
- Condition label: P. falciparum 3D7 erythrocytic growth, LDH absorbance, 72 h; at 2 µM; hits give high values
Each entry below lists one item and its recorded growth inhibition value.
Measured property: growth inhibition (%)

- Compound: "Cc1cc(=O)c(-c2ccc(Oc3ccc(Cl)cc3Cl)cc2)c(C)[nH]1"
  Value observed: 93
- Compound: "CS(=O)(=O)CCNCc1cccc(-c2ccc3c(Nc4ccc(Oc5ccccc5)cc4)ccnc3c2)c1"
  Value observed: 101
- Compound: "N#Cc1cc(C(=O)c2cc(Cl)ccc2O)cn(-c2cc(Cl)cc(Cl)c2)c1=O"
  Value observed: 93
- Compound: "CC(Cc1ccc(Cl)cc1)Nc1nc(NC2CCCC2)nc(N2CCC(C#N)(c3ccccc3)CC2)n1 (stereo not given)"
  Value observed: 99
- Compound: "N#Cc1ccc2c(c1)CCN(CCC1CCC(NC(=O)/C=C/c3ccc4ccccc4c3)CC1)CC2 (stereo not given)"
  Value observed: 97

====

- Target system: L-lactate dehydrogenase (Plasmodium falciparum (isolate CDC / Honduras)) (UniProt Q27743)
- Sequence (Q27743 whole entry, looked up): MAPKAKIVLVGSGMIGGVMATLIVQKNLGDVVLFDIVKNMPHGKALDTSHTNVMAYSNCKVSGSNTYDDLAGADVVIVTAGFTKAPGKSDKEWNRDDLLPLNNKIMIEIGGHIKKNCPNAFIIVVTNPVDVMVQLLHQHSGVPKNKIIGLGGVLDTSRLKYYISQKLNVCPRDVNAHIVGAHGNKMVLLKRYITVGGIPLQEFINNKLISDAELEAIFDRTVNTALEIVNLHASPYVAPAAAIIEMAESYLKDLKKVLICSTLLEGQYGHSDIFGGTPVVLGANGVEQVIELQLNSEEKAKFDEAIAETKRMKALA
- Test: PfLDH activity inhibition – cell lysate, 3D7 strain, counter-screen for P. falciparum growth inhibition project (AID 2304);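 also: 0% = vehicle and 100% = reference inhibitor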
- Condition label: P. falciparum 3D7 crude extract, LDH APAD/NBT absorbance; at 2 µM; hits give high values
Calls of active or inactive are those of the source. No rule for the calls is given here.

- Compound: "Cc1c(OC(C)C)nc2ccccc2c1C(=O)N[C@H](c1cccc(F)c1)C1CC1"
  inhibition: "3% (inactive)"
- Compound: "COc1cc(NC(=O)Nc2ccc(Br)cc2C(=O)Nc2ccc(Br)cc2)cc(OC)c1OC"
  inhibition: "7% (inactive)"
- Compound: "CC(CN1CCN(C)CC1)C(=O)Nc1ccc(-c2csc(-c3nc4ccccc4[nH]3)c2)cc1 (centres undefined)"
  inhibition: "-4% (inactive)"
- Compound: "CCCNC(=O)c1ccc(N2CCC(c3ccccc3C)CC2)nc1"
  inhibition: "2% (inactive)"
- Compound: "Cc1noc(-c2ccc(N3CCC(C(=O)N4CCN(C(C)C)CC4)CC3)cc2)n1"
  inhibition: "-5% (inactive)"
- Compound: "COc1ccccc1C(=O)N1CCN(Cc2cccs2)CC1"
  inhibition: "-1% (inactive)"
- Compound: "COc1cc(NC(=O)c2cccc([N+](=O)[O-])c2)cc(S(=O)(=O)c2ccc(Cl)cc2)c1"
  inhibition: "-3% (inactive)"
- Compound: "COc1ccc(CNC(=O)c2cnc3cc(-c4c(C)noc4C)ccc3c2Nc2ccccc2C(C)(C)C)cc1"
  inhibition: "0% (inactive)"
- Compound: "CC(=O)Nc1ccc(CN(Cc2ccc(C)cc2)Cc2cccc(Oc3ccccc3)c2)cc1"
  inhibition: "1% (inactive)"
- Compound: "O=C(Nc1cc(Cl)cc(Cl)c1)c1cc(Cl)c(=O)n(Cc2cccc(Cl)c2)c1"
  inhibition: "2% (inactive)"
- Compound: "CN(C)Cc1ccc(-c2cccc(NC(=O)c3ccc(Cl)cc3)c2)cc1"
  inhibition: "3% (inactive)"
- Compound: "O=C(/C=C/c1ccc(Cl)c(Cl)c1)NCCCCCN1CCN(C(=O)Nc2ccc(C(F)(F)F)cc2)CC1"
  inhibition: "-5% (inactive)"
- Compound: "O=C(/C=C/c1ccc(Cl)c(Cl)c1)NCCCCCN1CCC(C(=O)Nc2ccc(F)c(Cl)c2)CC1"
  inhibition: "2% (inactive)"
- Compound: "O=C(NCc1cccc(F)c1)Nc1ccc(-c2cccc(-c3nc4ccccc4[nH]3)c2)cc1"
  inhibition: "0% (inactive)"
- Compound: "COc1ccc(-c2cccc(NC(=O)c3ccc(C#N)cc3)c2)cc1CN1CCN(C)CC1"
  inhibition: "-3% (inactive)"
- Compound: "C=C(C)COc1ccc(-c2n[nH]c(C(F)(F)F)c2-c2ccccc2OC)c(O)c1"
  inhibition: "-5% (inactive)"
- Compound: "CN1CCN(CC(=O)Nc2cccc(-c3ccc(-c4nc5ccc(C(F)(F)F)cc5[nH]4)s3)c2)CC1"
  inhibition: "1% (inactive)"
- Compound: "Cc1[nH]cnc1Cc1ccc2c(c1O)c1ccccc1n2C"
  inhibition: "-2% (inactive)"
- Compound: "COc1ccc2nccc([C@@H](O)CN3CCC(NC(=O)c4[nH]c5ccccc5c4-c4ccccc4)CC3)c2c1"
  inhibition: "0% (inactive)"
